Data credit: patent US20130310625A1

# experimental-protocol: Phase 1 pharmacokinetics of veliparib administered concurrently with WBRT in patients with brain metastases
# Format: in vivo, human
# condition-description: human, plasma; oral veliparib BID with WBRT, patients
experimental-readout: Tmax

Reported Tmax for `C[C@]1(c2nc3c(C(N)=O)cccc3[nH]2)CCCN1` : what is it?
1 to 2 h
